target: human TLR9 (Homo sapiens (Human), UniProt Q9NR96); experiment: TLR9 inhibition reporter assay (HEK-Blue, SEAP); conditions: HEK-Blue cells overexpressing human TLR9, ODN2006 5 nM stimulation
Sequence (Q9NR96 26-1032): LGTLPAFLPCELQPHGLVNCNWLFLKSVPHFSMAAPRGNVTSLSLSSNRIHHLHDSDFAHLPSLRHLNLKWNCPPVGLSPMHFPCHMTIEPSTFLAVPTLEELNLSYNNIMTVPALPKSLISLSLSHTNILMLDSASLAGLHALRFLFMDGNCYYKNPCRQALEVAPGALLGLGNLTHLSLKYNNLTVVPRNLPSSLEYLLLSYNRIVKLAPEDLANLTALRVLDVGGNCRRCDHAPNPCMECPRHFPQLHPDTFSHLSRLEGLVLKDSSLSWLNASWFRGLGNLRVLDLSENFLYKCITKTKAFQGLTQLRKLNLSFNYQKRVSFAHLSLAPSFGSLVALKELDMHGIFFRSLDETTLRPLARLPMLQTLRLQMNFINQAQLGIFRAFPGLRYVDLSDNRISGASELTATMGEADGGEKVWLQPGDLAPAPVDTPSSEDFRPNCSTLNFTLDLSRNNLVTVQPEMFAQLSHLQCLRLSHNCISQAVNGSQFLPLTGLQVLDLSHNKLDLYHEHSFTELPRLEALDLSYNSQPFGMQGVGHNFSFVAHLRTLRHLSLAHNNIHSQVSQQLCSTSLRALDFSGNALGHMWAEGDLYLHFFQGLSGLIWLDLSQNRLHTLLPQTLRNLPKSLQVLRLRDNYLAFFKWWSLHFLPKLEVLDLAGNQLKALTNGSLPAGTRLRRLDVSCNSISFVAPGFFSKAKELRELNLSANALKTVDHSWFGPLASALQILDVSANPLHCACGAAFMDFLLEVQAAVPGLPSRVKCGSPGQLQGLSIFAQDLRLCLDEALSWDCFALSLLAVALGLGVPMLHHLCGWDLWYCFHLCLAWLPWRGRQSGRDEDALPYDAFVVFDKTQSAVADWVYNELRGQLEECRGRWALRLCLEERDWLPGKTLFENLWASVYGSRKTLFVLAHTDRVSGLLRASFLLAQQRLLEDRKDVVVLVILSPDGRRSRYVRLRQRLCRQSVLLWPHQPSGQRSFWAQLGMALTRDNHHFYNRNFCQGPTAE
METRIC NAME: IC50 (µM)

// worked examples, IC50 included
>  <MOLECULE>
Cc1cc(-c2[nH]c3ccc(-c4nnc(C5CCCN(C(=O)CN(C)C)C5)[nH]4)cc3c2C(C)C)ccn1 (stereo not shown)

>  <ASSAYED SYSTEM>
human TLR9 (Homo sapiens (Human), UniProt Q9NR96)

>  <METRIC NAME>
IC50

>  <EXPERIMENTAL RESULT>
1.92

$$$$
>  <MOLECULE>
Cc1cc(-c2[nH]c3ccc(-c4ccc(CO)nc4)cc3c2C(C)C)cc(C)n1

>  <ASSAYED SYSTEM>
human TLR9 (Homo sapiens (Human), UniProt Q9NR96)

>  <METRIC NAME>
IC50

>  <EXPERIMENTAL RESULT>
45.7

$$$$

a. COc1ccc(-c2[nH]c3ccc(-c4ccc(-c5cccc(CN6CCN(C)CC6)c5)cc4)cc3c2C(C)C)cc1OC
b. Cc1cc(-c2[nH]c3ccc(-c4nnc(C5CCN(C)CC5)o4)cc3c2C(C)C)cn2ncnc12
Hi team, can someone confirm which has the larger IC50: a or b ? Thanks. # answer = label of selected item
a
(a: 4.36 µM, b: 0.673 µM)

###

Target: UniProt Q9NR96
Test: TLR9 inhibition reporter assay (HEK-Blue, SEAP)
Conditions: HEK-Blue cells overexpressing human TLR9, ODN2006 5 nM stimulation
Description: TLR7/8/9 Inhibition Reporter Assays HEK-Blue™-cells (Invivogen) overexpressing human TLR7, TLR8 or TLR9 receptors were used for screening inhibitors of these receptors using an inducible SEAP (secreted embryonic alkaline phosphatase) reporter gene under the control of the IFN-β minimal promoter fused to five NF-κc Band AP-1-binding sites. […]
pIC50: −log10 of the molar value.
METRIC NAME: pIC50

1. CCc1c(-c2ccnc(C)c2)[nH]c2ccc(-c3noc(C4CC5(CCNCC5)C4)n3)cc12
2. COc1ccc(-c2[nH]c3ccc(-c4cnc(N5CCN(C6CCCC6)CC5)nc4)cc3c2C(C)C)cc1OC
3. Cc1cc(-c2[nH]c3ccc(-c4nnc([C@@H]5CCCNC5)o4)cc3c2C(C)C)cc(C)n1
4. COc1ccc(-c2[nH]c3ccc(-c4nnc(C5CCNCC5)[nH]4)cc3c2C(C)C)cc1OC
5. Cc1cc(-c2[nH]c3ccc(-c4nc(C(=O)NCCCN5CCCCC5)co4)cc3c2C(C)C)cc(C)n1
Exam item: list the entries in increasing order of pIC50. Use the labels to give the ranking in the order requested.
4, 2, 1, 3, 5
(4: 5.04, 2: 5.44, 1: 5.81, 3: 6.02, 5: 6.22)

P. COc1ccc(-c2[nH]c3ccc(-c4nnc(C5CCCN(C)C5)o4)cc3c2C(C)C)cc1OC (stereo not shown)
Q. COc1ccc(-c2[nH]c3ccc(-c4cnc(N5CCN(CC(C)C)CC5)cc4C)cc3c2C(C)C)cc1OC
Hi team, can someone confirm which has the larger pIC50: P or Q ? Thanks. # answer = label of selected item
P

###

molecular target: human TLR9 (Homo sapiens (Human)); test: TLR9 inhibition reporter assay (HEK-Blue, SEAP); settings: HEK-Blue cells overexpressing human TLR9, ODN2006 5 nM stimulation
pIC50: −log10 of the molar value.
METRIC NAME: pIC50

// worked examples, pIC50 included
>  <COMPOUND>
COc1ccc(-c2[nH]c3ccc(-c4cccc(-c5cccc(CN(C)C)c5)c4)cc3c2C(C)C)cc1OC [Example 397]

>  <ASSAYED SYSTEM>
human TLR9 (Homo sapiens (Human))

>  <pIC50>
5.38

$$$$
>  <COMPOUND>
Cc1cc(-c2[nH]c3ccc(-c4cnc(C5CCNCC5)s4)cc3c2C(C)C)ccn1 [Example 199]

>  <ASSAYED SYSTEM>
human TLR9 (Homo sapiens (Human))

>  <pIC50>
5.96

$$$$
>  <COMPOUND>
Cc1cc(-c2[nH]c3ccc(-c4nnc(C5CCCNC5)[nH]4)cc3c2C(C)C)ccn1 (centres unmarked) [Example 178]

>  <ASSAYED SYSTEM>
human TLR9 (Homo sapiens (Human))

>  <pIC50>
5.40

$$$$
>  <COMPOUND>
COc1ccc(-c2[nH]c3ccc(-c4nnc(C5CNC5)o4)cc3c2C(C)C)cc1OC [Example 53]

>  <ASSAYED SYSTEM>
human TLR9 (Homo sapiens (Human))

>  <pIC50>
5.52

$$$$
>  <COMPOUND>
Cc1cc(-c2[nH]c3ccc(-c4nnc(C5CCCN(C(C)C)C5)o4)cc3c2CC(F)F)cc(C)n1 (centres unmarked) [Example 328]

>  <ASSAYED SYSTEM>
human TLR9 (Homo sapiens (Human))

>  <pIC50>
6.69

$$$$

P. Cc1cc(-c2[nH]c3ccc(-c4nnc(C(=O)NCCN(C)C)o4)cc3c2C(C)C)cc(C)n1 [Example 223]
Q. Cc1cc(-c2[nH]c3ccc(-c4nnc([C@H]5CCCNC5)o4)cc3c2C(C)C)ccn1 [Example 69]
Smaller pIC50 value? Options are P and Q # answer = label of selected item
Q

###

molecular target: human TLR9 (Homo sapiens (Human)); test: TLR9 inhibition reporter assay (HEK-Blue, SEAP); conditions: HEK-Blue cells overexpressing human TLR9, ODN2006 5 nM stimulation
METRIC NAME: IC50 (nM)

// worked examples, IC50 included
>  <COMPOUND>
CCc1c(-c2ccc(OC)c(OC)c2)[nH]c2ccc(-c3noc(C4CCN(Cc5ccccc5)C4)n3)cc12 (stereo not drawn)

>  <IC50 / nM>
10300

$$$$
>  <COMPOUND>
CCOC(=O)N1CCC(NC(=O)c2coc(-c3ccc4[nH]c(-c5cc(C)nc(C)c5)c(C(C)C)c4c3)n2)CC1

>  <IC50 / nM>
2360

$$$$
>  <COMPOUND>
Cc1cc(-c2[nH]c3ccc(-c4nnc(C(=O)NCCCN(C)C)o4)cc3c2C(C)C)cc(C)n1

>  <IC50 / nM>
229

$$$$
>  <COMPOUND>
Cc1cc(-c2[nH]c3ccc(-c4ccnc(N5CCN(C)CC5)c4)cc3c2C(C)C)cc(C)n1

>  <IC50 / nM>
517

$$$$
>  <COMPOUND>
COc1ccc(-c2[nH]c3ccc(-c4nnc(C5CCN(C(=O)CN(C)C)CC5)[nH]4)cc3c2C(C)C)cc1OC

>  <IC50 / nM>
6480

$$$$

1. Cc1cc(-c2[nH]c3ccc(-c4nc(C(=O)NCC5CCNC5)c(C)o4)cc3c2C(C)C)ccn1 (stereo not drawn)
2. Cc1cc(-c2[nH]c3ccc(-c4nc(C(=O)NCCCN)co4)cc3c2C(C)C)cc(C)n1
3. Cc1cc(-c2[nH]c3ccc(-c4nc5c(s4)CN(CC(=O)N(C)C)CC5)cc3c2C(C)C)cc(C)n1
4. CNCC(=O)N1CCc2cc(-c3ccc4[nH]c(-c5cc(C)nc(C)c5)c(C(C)C)c4c3)sc2C1
5. Cc1cc(-c2[nH]c3ccc(-c4nnc(C5CCCNC5)[nH]4)cc3c2C(C)C)cc(C)n1 (stereo not drawn)
Order the 5 compounds from highest to lowest IC50. Use the labels to give the ranking in the order requested.
1, 3, 4, 2, 5
(1: 11700 nM, 3: 5620 nM, 4: 945 nM, 2: 488 nM, 5: 322 nM)

###

biological target: UniProt:Q9NR97; test: TLR8 inhibition reporter assay (HEK-Blue, SEAP); conditions: HEK-Blue cells overexpressing human TLR8, R848 15.9 μM stimulation
Sequence (Q9NR97 27-1041): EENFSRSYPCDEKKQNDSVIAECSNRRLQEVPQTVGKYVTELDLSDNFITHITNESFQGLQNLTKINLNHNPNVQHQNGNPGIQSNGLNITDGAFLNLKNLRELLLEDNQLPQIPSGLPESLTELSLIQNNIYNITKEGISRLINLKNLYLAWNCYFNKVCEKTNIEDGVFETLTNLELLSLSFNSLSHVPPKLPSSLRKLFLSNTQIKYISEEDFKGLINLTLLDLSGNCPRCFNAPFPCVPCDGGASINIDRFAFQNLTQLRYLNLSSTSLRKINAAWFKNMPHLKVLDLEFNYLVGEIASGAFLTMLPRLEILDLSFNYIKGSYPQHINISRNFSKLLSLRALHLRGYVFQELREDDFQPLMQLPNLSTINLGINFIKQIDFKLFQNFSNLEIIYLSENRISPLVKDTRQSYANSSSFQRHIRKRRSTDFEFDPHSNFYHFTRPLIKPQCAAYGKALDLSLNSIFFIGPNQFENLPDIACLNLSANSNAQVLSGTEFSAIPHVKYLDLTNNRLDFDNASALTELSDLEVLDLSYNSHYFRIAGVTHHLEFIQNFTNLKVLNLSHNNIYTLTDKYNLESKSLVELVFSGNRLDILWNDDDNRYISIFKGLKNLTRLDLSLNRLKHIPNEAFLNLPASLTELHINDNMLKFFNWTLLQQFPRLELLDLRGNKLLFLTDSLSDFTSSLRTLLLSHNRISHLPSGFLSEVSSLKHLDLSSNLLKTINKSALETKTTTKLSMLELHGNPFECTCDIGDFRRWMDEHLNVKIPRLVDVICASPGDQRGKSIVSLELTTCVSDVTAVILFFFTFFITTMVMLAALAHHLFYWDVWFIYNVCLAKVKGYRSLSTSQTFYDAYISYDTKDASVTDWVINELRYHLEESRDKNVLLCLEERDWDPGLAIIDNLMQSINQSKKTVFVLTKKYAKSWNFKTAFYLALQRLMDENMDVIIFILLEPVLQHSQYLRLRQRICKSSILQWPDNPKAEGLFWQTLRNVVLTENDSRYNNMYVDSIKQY
pIC50: −log10 of the molar value.
METRIC NAME: pIC50

// worked examples, pIC50 included
>  <MOLECULE>
Cc1cc(-c2[nH]c3ccc(-c4ccc(N5CCC(N(C)C)CC5)nc4)cc3c2C(C)C)cc(C)n1 [Example 337]

>  <METRIC NAME>
pIC50

>  <EXPERIMENTAL RESULT>
8.31

$$$$
>  <MOLECULE>
CC(C)c1c(-c2ccc3nccn3c2)[nH]c2ccc(-c3nnc(C(=O)NC4CCN(C(C)C)CC4)o3)cc12 [Example 241]

>  <METRIC NAME>
pIC50

>  <EXPERIMENTAL RESULT>
7.37

$$$$
>  <MOLECULE>
CCc1c(-c2ccnc(C)c2)[nH]c2ccc(-c3noc([C@H]4CCNC4)n3)cc12 [Example 455]

>  <METRIC NAME>
pIC50

>  <EXPERIMENTAL RESULT>
7.57

$$$$
>  <MOLECULE>
Cc1cc(-c2[nH]c3ccc(-c4cnc(N)cn4)cc3c2C(C)C)cc(C)n1 [Example 307]

>  <METRIC NAME>
pIC50

>  <EXPERIMENTAL RESULT>
7.74

$$$$

I. Cc1cc(-c2[nH]c3ccc(-c4cc5c(s4)CN(C(=O)C4CC(=O)N(C)C4)CC5)cc3c2C(C)C)cc(C)n1 (stereo not shown) [Example 352]
II. COc1ccc(-c2[nH]c3ccc(-c4nnc([C@H]5CCCNC5)o4)cc3c2C(C)C)cc1OC [Example 52]
III. Cc1cc(-c2[nH]c3ccc(-c4nnc(C(=O)NC5CCN(C(C)C)CC5)o4)cc3c2C(C)C)cc(C)n1 [Example 221]
Order the 3 molecules from highest to lowest pIC50. Use the labels to give the ranking in the order requested.
III, II, I
(III: 8.60, II: 8.22, I: 7.31)
